Molecular target: Cysteinyl leukotriene receptor 1 (Homo sapiens, UniProt Q9Y271)
Sequence (Q9Y271 whole entry): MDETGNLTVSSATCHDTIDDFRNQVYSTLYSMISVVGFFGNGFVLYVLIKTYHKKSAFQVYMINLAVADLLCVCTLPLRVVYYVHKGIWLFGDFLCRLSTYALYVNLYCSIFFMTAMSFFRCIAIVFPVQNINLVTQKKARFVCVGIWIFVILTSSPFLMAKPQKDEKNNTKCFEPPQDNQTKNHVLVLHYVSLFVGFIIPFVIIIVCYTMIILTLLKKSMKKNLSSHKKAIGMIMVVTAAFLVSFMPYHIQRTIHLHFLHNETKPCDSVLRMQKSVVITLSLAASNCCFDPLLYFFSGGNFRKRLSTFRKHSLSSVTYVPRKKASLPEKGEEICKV
Assay: Antagonist activity at human CysLT1 receptor expressed in CHO cells assessed as inhibition of LTD4-inudced intracellular calcium influx preincubated for 30 mins before LTD4 addition by Fura2-AM assay
pIC50: −log10 of the molar value.
# binarize pIC50: threshold 7 inclusive, high side y, low side n

- CCCCC/C=C\C\C=C/C=C/C=C/[C@@H](Sc1ccc(C(=O)O)cc1)[C@@H](O)CCCC(=O)O: n
- CCCC(=O)N1CC(C(=O)O)Oc2c(NC(=O)c3ccc(OCCCCc4ccccc4)cc3)cccc21 (stereo not drawn): n
- CCN(CC)C(=O)/C=C(\C)c1ccc2oc(C(=O)c3ccc(C#N)cc3)c(NC(=O)/C(C#N)=C(/C)O)c2c1: n
- O=C(O)CCCN1CC(C(=O)O)Oc2c(NC(=O)c3ccc(OCCOc4ccccc4)cc3)cccc21 (stereo not drawn): n
- O=C(O)CCCCN1CC(C(=O)O)Oc2c(NC(=O)c3ccc(OCCCCc4ccccc4)cc3)cccc21 (stereo not drawn): y
- O=C(O)CCC(=O)N1CC(C(=O)O)Oc2c(NC(=O)c3ccc(OCCCCc4ccccc4)cc3)cccc21 (stereo not drawn): y
- O=C(O)CCCN1CC(C(=O)O)Oc2c(NC(=O)c3ccc(OCCCCOc4ccccc4)cc3)cccc21 (stereo not drawn): y

---

Biological target: Cysteinyl leukotriene receptor 1 (Homo sapiens, UniProt Q9Y271)
Test: Antagonist activity at human CysLT1 receptor expressed in CHO cells assessed as inhibition of LTD4-inudced intracellular calcium influx preincubated for 30 mins before LTD4 addition by Fura2-AM assay
property: IC50

- O=C(Nc1ccc2c(c1)OC(C(=O)O)CN2)c1ccc(OCCCCc2ccccc2)cc1 (stereo not given): 4600 nM
- O=C(O)CCCN1CC(C(=O)O)Oc2c(NC(=O)c3ccc(OCCCc4ccccc4)cc3)cccc21 (stereo not given): 1300 nM
- CCC(=O)N1CC(C(=O)O)Oc2c(NC(=O)c3ccc(OCCCCc4ccccc4)cc3)cccc21 (stereo not given): 150 nM
- O=C(O)CCCCCN1CC(C(=O)O)Oc2c(NC(=O)c3ccc(OCCCCc4ccccc4)cc3)cccc21 (stereo not given): 130 nM
- O=C(Nc1cccc2c1OC(C(=O)O)CN2)c1ccc(OCCCCc2ccccc2)cc1 (stereo not given): 54 nM
